- tested target: ULK1 kinase (Homo sapiens)
- Construct: purchased Eurofins 14-959
- Sequence (O75385 with tags, fused parts or gaps): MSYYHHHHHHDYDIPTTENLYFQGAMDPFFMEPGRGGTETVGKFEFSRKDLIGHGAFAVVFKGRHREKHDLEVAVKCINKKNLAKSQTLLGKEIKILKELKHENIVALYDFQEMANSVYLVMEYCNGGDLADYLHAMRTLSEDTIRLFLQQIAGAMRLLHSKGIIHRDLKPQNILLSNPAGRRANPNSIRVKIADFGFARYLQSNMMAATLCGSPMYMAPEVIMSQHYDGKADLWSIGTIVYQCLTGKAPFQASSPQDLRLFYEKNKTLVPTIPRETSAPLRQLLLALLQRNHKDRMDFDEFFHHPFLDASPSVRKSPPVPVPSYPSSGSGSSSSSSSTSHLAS
- test method notes: Biochemical assay for ULK1.2 (coupled pyruvate kinase/lactate dehydrogenase assay)
- test conditions: 19 nM ULK1 (Eurofins), myelin basic protein, 1 mM ATP
readout type: IC50

Here are 2 molecules together with their reported answers.
• [2H]C([2H])([2H])C([2H])(N1CCC(n2cc(Nc3ncc(C(F)(F)F)c(NCCCN4CCCCC4=O)n3)cn2)CC1)C([2H])([2H])[2H] [Example 13] = 1 to 25 nM
• Cc1nn(C2CCN(CC(C)C)CC2)cc1Nc1ncc(C(F)(F)F)c(NCCCN2CCCCCC2=O)n1 [Example 89] = 1 to 25 nM

Prompt: Dear colleague, I am looking for the recorded IC50 of the following molecule: Cc1nn(C2CCNCC2)cc1Nc1ncc(Br)c(NCCCN2CCCCC2=O)n1 [Example 26]
Response: 1 to 25 nM

Prompt: Request the reported IC50 associated with CN1CCC(n2cc(Nc3ncc(C(F)(F)F)c(NCCCN4CCCCCC4=O)n3)cn2)CC1 [Example 78]
Response: 1 to 25 nM

Prompt: Which IC50 value is on record for CCc1nn(C2CCN(CC)CC2)cc1Nc1ncc(Br)c(NCCCN2CCCCC2=O)n1 [Example 54] ?
Response: 25 to 100 nM

Prompt: Report IC50 for [2H]C([2H])([2H])N1CCC(n2cc(Nc3ncc(C(F)(F)F)c(NCCCN4CCCCCC4=O)n3)c(C)n2)CC1 [Example 101] please.
Response: 1 to 25 nM

---

- tested target: ULK2 kinase (Homo sapiens, UniProt Q8IYT8)
- Sequence (Q8IYT8 with tags, fused parts or gaps): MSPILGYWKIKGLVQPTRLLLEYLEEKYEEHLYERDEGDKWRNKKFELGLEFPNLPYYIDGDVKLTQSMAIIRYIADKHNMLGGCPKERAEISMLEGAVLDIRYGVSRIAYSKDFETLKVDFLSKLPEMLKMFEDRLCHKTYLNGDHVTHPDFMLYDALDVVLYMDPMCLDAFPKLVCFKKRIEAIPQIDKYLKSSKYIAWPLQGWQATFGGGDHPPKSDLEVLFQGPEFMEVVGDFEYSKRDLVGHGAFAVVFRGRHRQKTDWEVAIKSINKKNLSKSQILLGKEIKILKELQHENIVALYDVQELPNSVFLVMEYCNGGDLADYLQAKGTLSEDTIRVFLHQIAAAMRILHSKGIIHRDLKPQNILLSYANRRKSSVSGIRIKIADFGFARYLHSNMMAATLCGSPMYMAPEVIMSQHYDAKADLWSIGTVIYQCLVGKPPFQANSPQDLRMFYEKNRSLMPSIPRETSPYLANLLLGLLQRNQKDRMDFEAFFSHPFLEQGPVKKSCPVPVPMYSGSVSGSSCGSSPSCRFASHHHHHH
pIC50: −log10 of the molar value.
readout type: pIC50

• CCc1nn(C2CCN(C)CC2)cc1Nc1ncc(Br)c(NCCCN2CCCCC2=O)n1 [Example 53] = 6.30 to 7.00
• Cc1nn([C@@H]2CCN(C)C2)cc1Nc1ncc(Br)c(NCCCN2CCCCC2=O)n1 [Example 44] = 6.30 to 7.00
• Cc1nn(C2CCN(C(C)C)CC2)cc1Nc1ncc(C(F)(F)F)c(NCCCN2CCCCC2=O)n1 [Example 15] = 6.30 to 7.00
• Cc1nn([C@H]2CCN(C)C2)cc1Nc1ncc(Br)c(NCCCN2CCCCC2=O)n1 [Example 61] = 6.30 to 7.00
• O=C1CCCCCN1CCCNc1nc(Nc2cnn(C3CCNCC3)c2)ncc1C(F)(F)F [Example 77] = 7.60 to 9.00

Prompt: If you can, please state the reported pIC50 value of Cc1nn(CCN(C)C)cc1Nc1ncc(C(F)(F)F)c(NCCCN2CCCCC2=O)n1 [Example 21] .
Response: 6.30 to 7.00

Prompt: Consider the molecule CN1CCC(n2cc(Nc3ncc(C(F)(F)F)c(NCCCN4CCCC4=O)n3)cn2)CC1 [Example 166] and give its measured pIC50.
Response: 7.00 to 7.60

Prompt: Fill in the blank: the reported pIC50 of Cc1nn(C2CCN(C)CC2)cc1Nc1ncc(C(F)(F)F)c(NCCCN2CCCOCC2=O)n1 [Example 102] is ____.
Response: 7.00 to 7.60

Prompt: Any idea what pIC50 was measured for CCN1CCC(n2cc(Nc3cc(NCCCN4CCCCC4=O)c(C(F)(F)F)cn3)cn2)CC1 [Example 16] ?
Response: 6.30 to 7.00

Prompt: Dear colleague, I am looking for the recorded pIC50 of the following molecule: CCc1nn(C2CCNCC2)cc1Nc1ncc(Br)c(NCCCN2CCCCC2=O)n1 [Example 41]
Response: 6.30 to 7.00

Prompt: Value lookup for pIC50; key = Cc1nn(CCCN2CCOCC2)cc1Nc1ncc(C(F)(F)F)c(NCCCN2CCOCCC2=O)n1 [Example 129]
Response: < 6.30
